- System: pepsin
- Sequence (P0DJD8 63-388): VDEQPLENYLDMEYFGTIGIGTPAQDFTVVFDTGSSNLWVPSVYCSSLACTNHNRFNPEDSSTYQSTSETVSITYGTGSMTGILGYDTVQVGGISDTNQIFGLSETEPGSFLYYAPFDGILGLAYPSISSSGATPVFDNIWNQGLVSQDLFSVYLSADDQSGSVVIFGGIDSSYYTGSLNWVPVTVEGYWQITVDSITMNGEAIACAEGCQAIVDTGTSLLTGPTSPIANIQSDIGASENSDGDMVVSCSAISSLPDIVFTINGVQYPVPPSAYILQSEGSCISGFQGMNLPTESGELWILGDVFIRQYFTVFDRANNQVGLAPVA
- measurement description: Stability of oral formulations of Angiopep peptides in the presence of pepsin
- Format: in vitro ADME
- conditions used: pepsin (isolated enzyme); 1 mg/mL peptide; 1 mg/25 mL pepsin (diluted 41 times, pH=1.4); 37° C.
Listed molecules paired with reported half-life at 1 mg/mL
Record the value in min, omitting the unit from your answer.

// known answers, use as guide
C[C@@H](O)[C@H](NC(=O)[C@H](CCCCN)NC(=O)[C@H](Cc1ccccc1)NC(=O)[C@H](CC(N)=O)NC(=O)[C@H](CC(N)=O)NC(=O)[C@H](CCCNC(=N)N)NC(=O)[C@@H](N)CCCCN)C(=O)N[C@@H](CCC(=O)O)C(=O)N[C@@H](CCC(=O)O)C(=O)N[C@@H](Cc1ccc(O)cc1)C(=O)N[C@@H](CS)C(N)=O [Peptide P5] ... 24
C[C@@H](O)[C@H](N)C(=O)N[C@@H](Cc1ccccc1)C(=O)N[C@@H](Cc1ccccc1)C(=O)N[C@@H](Cc1ccc(O)cc1)C(=O)NCC(=O)NCC(=O)N[C@@H](CO)C(=O)N[C@H](CCCNC(=N)N)C(=O)NCC(=O)N[C@H](CCCCN)C(=O)N[C@H](CCCNC(=N)N)C(=O)N[C@@H](CC(N)=O)C(=O)N[C@@H](CC(N)=O)C(=O)N[C@@H](Cc1ccccc1)C(=O)N[C@@H](CCCCN)C(=O)N[C@H](C(=O)N[C@@H](CCC(=O)O)C(=O)N[C@@H](CCC(=O)O)C(=O)N[C@@H](Cc1ccc(O)cc1)C(=O)O)[C@@H](C)O [Peptide 3D-An2] ... 60

Turning now to a further record.
# input Name the recorded half-life at 1 mg/mL for C[C@@H](O)[C@H](NC(=O)[C@H](CCCCN)NC(=O)[C@@H](Cc1ccccc1)NC(=O)[C@H](CC(N)=O)NC(=O)[C@H](CC(N)=O)NC(=O)[C@@H](CCCNC(=N)N)NC(=O)[C@H](N)CCCCN)C(=O)N[C@@H](CCC(=O)O)C(=O)N[C@@H](CCC(=O)O)C(=O)N[C@@H](Cc1ccc(O)cc1)C(=O)N[C@@H](CS)C(N)=O [Peptide P5a] .
# output 21
